- testDetails: Pharmacokinetics of Compounds 16, 22 and 23
- Assay type: in vivo, SCID/mice
- setupConditions: SCID, mouse, plasma, 100 mg/kg; IV/100 mpk; read-out: Vss
propertyLabel: Vd (L/kg)
Hi! Could you send only the number? It should be in L/kg, unit omitted.

Form field Vd, entry O=c1ncccn1[C@@H]1O[C@H](CO)[C@@H](O)[C@H]1O [Compound 16, reference compound] : 0.91

====

Listed below: pIC50 values for each entry.
- System: Hep G2 (human hepatocellular carcinoma)
- testDetails: Anti-proliferative activity test (CellTiter-Glo), Hep G2
- Type: cell-based
- setupConditions: Homo sapiens, HepG2; Hep G2, liver cancer
- Protocol: Six hundred cells in 90 media were plated per well in duplicates in a 96-well plate. Cells were incubated in a humidified incubator at 37° C. with 5% CO2 during the assay. DMSO was added to the test compounds with the final DMSO concentration being 0.1% [v/v] of the culture. 100 μl of CellTiter-Glo® was added to the equal volume of cultured cells to read luminescence in EnVision Multi Label Reader.
To interpret pIC50, take it as minus log10 of a concentration measured in moles per litre.

                                querysmiles  propertylabel  recordedvalue
0  Nc1ccn([C@@H]2O[C@H](CO)[C@@H](O)[C@@H]2O)c(=O)n1          pIC50           5.72

Next compound, please.
Considering CCCC(=O)OC[C@H]1O[C@@](C#N)(n2ccc(N)nc2=O)[C@@H](O)[C@@H]1O , its pIC50 with Hep G2 (human hepatocellular carcinoma) was recorded as 6.25

====

- Tested on: MOLT-4 (human acute lymphoblastic leukemia)
- testDetails: Anti-proliferative activity test (CellTiter-Glo), MOLT-4
- Assay type: cell-based
- setupConditions: MOLT-4, hematological
- Protocol: Six hundred cells in 90 media were plated per well in duplicates in a 96-well plate. Cells were incubated in a humidified incubator at 37° C. with 5% CO2 during the assay. DMSO was added to the test compounds with the final DMSO concentration being 0.1% [v/v] of the culture. 100 μl of CellTiter-Glo® was added to the equal volume of cultured cells to read luminescence in EnVision Multi Label Reader.
propertyLabel: pIC50
To interpret pIC50, take it as minus log10 of a concentration measured in moles per litre.

Form field pIC50, entry N#C[C@@]1(n2ccc(N)nc2=O)O[C@H](CO)[C@@H](O)[C@@H]1O [Compound 11] : 5.97

====

- testDetails: Pharmacokinetics of Compounds 16, 22 and 23
- Type: in vivo, SCID/mice
- setupConditions: SCID, mouse, plasma, 500 mg/kg; PO/500 mpk
- Procedure: Pharmacokinetics of Compound 16 (Comparative example) prepared in step 3 of Example 2, and mutual prodrugs of Compounds 22 and 23 prepared in Example 3 and 4, respectively, were evaluated in SCID/mice following oral (PO) and intravenous (IV) administration according to the route/dose as shown in Table 4. Blood samples were collected over 24 hrs, and plasma samples were prepared. Plasma concentrations of the test compounds were analyzed by LC/MS/MS. […]
propertyLabel: half-life (h)
Hi! Could you send only the number? It should be in h, unit omitted.

Form field half-life, entry O=c1ncccn1[C@@H]1O[C@H](CO)[C@@H](O)[C@H]1O [Compound 16, reference compound] : 2.44

Entry source: patent US10500224B2
